# Assayed target: Transthyretin (Homo sapiens)
# Assay explanation: Inhibition of transthyretin fibril formation at pH 4.4 at 100 uM
# Assay type: functional
Recorded metric: inhibition (%)
// return numeric value only (unit: %, not printed)

q: Requested field: inhibition. Item: `Cc1nc2c(ccc3ccccc32)c(O)c1CN1CCCC1`
a: 33.1

q: Repeat with `O=C(O)CCCCCN1C(=O)/C(=C/c2c[nH]c3ccccc23)SC1=S`
a: 0

q: Repeat with `Cc1ccc2nc(Nc3nc(O)c4ccccc4n3)nc(C)c2c1`
a: 31.1

---

Quick list: inhibition per entry.
# Assayed target: Transthyretin (Homo sapiens, UniProt P02766)
# Assay explanation: Inhibition of transthyretin fibril formation at pH 4.4 at 100 uM
# Type: functional
Answer format reminder: number followed by unit.

Compound	Test value
O=c1/c(=C\c2ccccc2Cl)sc2nc3ccccc3n12	29.1%

q: Form entry - test system: Transthyretin (Homo sapiens, UniProt P02766); read-out: inhibition; compound: O=C1CSC(c2ccc(Cl)cc2Cl)N1c1ccc(Cl)cc1 (stereo not given)
a: 79.7%

q: Repeat with `COC(=O)c1sc(=S)n(-c2ccc(Cl)c(Cl)c2)c1N`
a: 15.6%

q: Repeat with O=C(Nc1c2c(nn1-c1cccc(Cl)c1)C[S+]([O-])C2)c1ccccc1F (stereo not given)
a: 10.4%

q: Repeat with `Cc1nc2ccc(Cl)cc2c(O)c1CN1CCCC1`
a: 18.2%

q: Repeat with `COc1ccccc1NC(=S)N(CCCN1CCCCCC1)Cc1cccs1`
a: 0%

q: Repeat with `Cc1nnc2c(Oc3ccc(Cl)cc3)nc3cc(Cl)ccc3n12`
a: 0%

q: Repeat with `COc1ccc(NC(=S)N(CCCN2CCOCC2)Cc2cccs2)cc1`
a: 0%

---

# Assayed target: Transthyretin (Homo sapiens, UniProt P02766)
# Assay explanation: Inhibition of transthyretin amyloidosis assessed as fibril formation pH 4.4 at 100 uM
# Assay type: functional
Recorded metric: percent fibril formation relative to control (%)
// return numeric value only (unit: %, not printed)

The following compounds have reported results that may help.
Compound	Test value
O=C(Nc1c2c(nn1-c1cccc(Cl)c1)C[S+]([O-])C2)c1ccccc1F (stereo not drawn)	89.5
CSC1=NSC2=NC(=O)/C(=C\c3ccc(O)cc3)C(=N)N12	72.7
O=C(O)c1cccc(-c2ccc(/C=C3/SC(=S)N(c4cccc(C(F)(F)F)c4)C3=O)o2)c1	449

q: Requested field: percent fibril formation relative to control. Item: `O=C(CSc1nccn1-c1cccc(Cl)c1)Nc1cccc2ccccc12`
a: 122

q: Repeat with `COc1cc(/C=C2\SC(=S)N(c3ccc(O)cc3)C2=O)ccc1O`
a: 230

q: Repeat with `O=C(NCc1ccco1)c1cc(Sc2cccc(Cl)c2)nc2ccccc12`
a: 60.7

q: Repeat with `Cc1ccc2nc(Nc3nc(O)c4ccccc4n3)nc(C)c2c1`
a: 68.9

q: Repeat with `O=c1/c(=C\c2ccccc2Cl)sc2nc3ccccc3n12`
a: 71

---

# Assayed target: Transthyretin (Homo sapiens)
# Assay explanation: Inhibition of transthyretin fibril formation at pH 4.4 at 100 uM
# Assay type: functional
Recorded metric: inhibition

The following compounds have reported results that may help.
Compound	Assayed target	Recorded metric	Test value
O=c1c2sccc2n(Cc2ccc(F)cc2Cl)c(=O)n1-c1cc(F)ccc1F	Transthyretin (Homo sapiens)	inhibition	0%
Nc1nc(F)cc(Oc2ccccc2F)n1	Transthyretin (Homo sapiens)	inhibition	45.6%
O=C(O)C1CSC(c2cccnc2)N1 (stereo unspecified)	Transthyretin (Homo sapiens)	inhibition	0%
NN1C(=O)/C(=C\c2ccc(Cl)cc2)NC1=S	Transthyretin (Homo sapiens)	inhibition	0%
Cc1nc2c(C(=O)NCCC(C)C)cnn2c(O)c1Cc1ccccc1F	Transthyretin (Homo sapiens)	inhibition	91.7%
O=[N+]([O-])c1ccc(Cl)cc1Sc1nc2ccccc2s1	Transthyretin (Homo sapiens)	inhibition	91.8%

q: Requested field: inhibition. Item: `O=C(O)CCc1nc(-c2cccs2)no1`
a: 67.9%

q: Repeat with `COc1ccc(/C=C2\SC(=S)N(c3ccc(O)cc3)C2=O)cc1`
a: 0%

q: Repeat with O=C(NC(c1ccco1)c1cc(Cl)c2cccnc2c1O)c1cccnc1 (stereo unspecified)
a: 63.3%

q: Repeat with `O=C(NC1CC1)c1cc(Sc2cccc(Cl)c2)nc2ccccc12`
a: 58.2%

q: Repeat with `O=C(Nc1nnc[nH]1)c1c(Cl)ccc(Cl)c1Cl`
a: 88.5%

---

# Assayed target: Transthyretin (Homo sapiens, UniProt P02766)
# Assay explanation: Inhibition of transthyretin fibril formation at pH 4.4 at 100 uM
# Type: functional
Recorded metric: inhibition (%)
// return numeric value only (unit: %, not printed)

Compound	inhibition [%]
Cc1ccccc1C1=N/C(=C\c2sccc2C)C(=O)O1	0

q: Requested field: inhibition. Item: CC(C)C(=O)NC(c1ccccc1)c1ccc2cccnc2c1O (configuration not stated)
a: 95.4

q: Repeat with O=C(O)c1ccc(Cl)c(N2C(=O)C3C4CCC(C4)C3C2=O)c1 (stereo in doubt; 33)
a: 37.8

q: Repeat with `COc1ccc(NC(=S)N(CCCN2CCOCC2)Cc2cccnc2)cc1`
a: 1.4

q: Repeat with O=C(O)C1CSC(c2ccc(Cl)c(Cl)c2)N1 (configuration not stated)
a: 0

q: Repeat with CCCCC1NC(C(=O)O)CS1 (configuration not stated)
a: 0

q: Repeat with `CCCCN(CC)Cc1c(C)nc2c(ccc3ccccc32)c1O`
a: 24.3

q: Repeat with `Nc1nc(Cl)cc(Oc2ccccc2F)n1`
a: 47.6

q: Repeat with `CSC1=NSC2=NC(=O)/C(=C\c3ccc[nH]3)C(=N)N12`
a: 0

q: Repeat with COc1cccc(C(=O)NC(c2ccccc2)c2cc(Cl)c3cccnc3c2O)c1 (configuration not stated)
a: 65.3

q: Repeat with `Oc1ccc(Nc2nc(-c3ccc(Cl)cc3)nc3ccccc23)cc1`
a: 4.06

q: Repeat with `Nc1cc(O)nc(SCC(=O)N2CCOCC2)n1`
a: 0

q: Repeat with `CSC1=NSC2=NC(=O)/C(=C\c3ccc(Cl)cc3)C(=N)N12`
a: 32.9

q: Repeat with `O=C1OC(c2ccc(Cl)cc2Cl)=N/C1=C/c1ccc(Cl)c(Cl)c1`
a: 0

q: Repeat with `CCc1ccccc1NC(=S)N(CCN(C)C)Cc1cccs1`
a: 0

q: Repeat with O=C1CCCC2=C1C(c1cccc(O)c1)NC(=S)N2 (configuration not stated)
a: 0

q: Repeat with `CCCCN(CC)Cc1c(C)nc2ccc(Cl)cc2c1O`
a: 20.3

q: Repeat with `COc1cc(/C=C2\SC(=S)N(c3ccc(O)cc3)C2=O)ccc1O`
a: 0

q: Repeat with `Cn1ncc(/N=C/c2ccccc2O)c1C(=O)N1CCOCC1`
a: 50

q: Repeat with `CCN(CC)CCCN(Cc1ccco1)C(=S)Nc1ccc(OC)cc1`
a: 0

q: Repeat with `O=c1c2ccccc2nc2sc(Nc3ccc(F)cc3F)nn12`
a: 102

q: Repeat with `Cc1nc2c(C(=O)NCc3ccc(F)cc3)cnn2c(O)c1Cc1ccccc1F`
a: 53.1

q: Repeat with `Oc1ccc(-c2nc3ncccn3c2Nc2ccc(Cl)cc2)cc1`
a: 0

---

# Assayed target: Transthyretin (Homo sapiens, UniProt P02766)
# Assay explanation: Inhibition of transthyretin amyloidosis assessed as fibril formation pH 4.4 at 100 uM
# Type: functional
Lab note - cut at 80% for percent fibril formation relative to control: criterion met if strictly below, criterion not met if not.

Molecule	Label class
O=C1NC(=S)S/C1=C\c1ccc(-c2cc(Cl)ccc2Cl)o1	criterion not met
O=C1CCCC2=C1C(c1cccc(O)c1)NC(=S)N2 (stereo not given)	criterion not met
Clc1ccccc1C1CC(c2cccs2)Nc2nnnn21 (stereo not given)	criterion met
CCc1ccc(Oc2cc(F)nc(N)n2)cc1	criterion met
Cc1ccc(C2NC(C(=O)O)CS2)cc1 (stereo not given)	criterion met

q: Below 80% on percent fibril formation relative to control? Entry `Cc1ccn2c(Nc3ccccc3C)c(-c3ccc(O)cc3)nc2c1`
a: criterion not met

q: Repeat with `O=[N+]([O-])c1ccc(Cl)cc1Sc1nc2ccccc2s1`
a: criterion met

---

# Assayed target: Transthyretin (Homo sapiens)
# Assay explanation: Inhibition of transthyretin fibril formation at pH 4.4 at 100 uM
# Type: functional
Recorded metric: inhibition (%)
// return numeric value only (unit: %, not printed)

The following compounds have reported results that may help.
Compound	inhibition, %
Oc1ccccc1-c1nnc(S)o1	86.2
CCOC(=O)c1sc(=S)n(-c2cccc3ccccc23)c1N	0
FC(F)(F)c1cccc(NC(=S)N(CCCN2CCCCC2)Cc2cccs2)c1	13.3
Oc1ccc(-c2n[nH]c(=S)o2)cc1	80.8
O=C1OC(/C=C/c2ccc(Cl)cc2Cl)=NC/1=C\c1cccs1	0
Cc1ccc2nc(NC(=O)c3ccccc3O)sc2c1	0
Cc1nc2c(ccc3ccccc32)c(O)c1CN1CCOCC1	30.4
O=C(O)c1ccc(Cl)c(N2C(=O)C3C4CCC(C4)C3C2=O)c1 (stereo in doubt; 34)	0

Now consider the entry below.
q: Form entry - test system: Transthyretin (Homo sapiens); read-out: inhibition; compound: `Nc1nc(F)cc(Oc2ccc(F)cc2)n1`
a: 16
